What TGI was measured for each of the following?
Test system: MDA-MB-231 breast
Experiment: NCI tumour cell line growth inhibition, 48 h
Peptide text beside a SMILES is read from it. * marks the point of attachment. Boc = CC(C)(C)OC(=O)*; OBn = c1ccc(CO*)cc1

For orientation, consider the following solved cases.
{"compound": "C=C[C@H]1CCC/C=C/[C@@H]2C[C@H](O)C[C@H]2[C@H](O)/C=C/C(=O)O1", "TGI": "0.0403 µM"}
{"compound": "COc1cc(NCc2ccc3nc(OC)c(OC)nc3c2)cc(OC)c1OC", "TGI": "> 100 µM"}
{"compound": "CNn1c(C)n[nH]c1=O", "TGI": "> 100 µM"}
{"compound": "CC/C=C/C(=O)CC(O)(C(F)(F)F)C(F)(F)F", "TGI": "> 100 µM"}
{"compound": "O=S(=O)(c1ccc(N=C2NN=C(c3c[nH]c4ccccc34)CS2)cc1)N1CCOCC1", "TGI": "> 100 µM"}

Hi, could you look up TGI for each item in my list?
1. OC(C/C(=N\N1CCCCC1)c1cccs1)(C(F)(F)F)C(F)(F)F
2. CCCCCCCCCCCCC(O)C1CCC(C(O)CCCCCCC(O)CCCCCCCC2=CC(C)OC2=O)O1 (stereo unspecified)
3. Cn1c(Nc2ccccc2)c(C=Nc2ccccc2)c(=O)n(C)c1=O
4. CC(NC(=O)CNC(=O)OC(C)(C)C)C(=O)NC(Cc1ccccc1)C(=O)OCc1ccccc1 (stereo not drawn) (Boc-Gly-Ala-Phe-OBn; configuration not given here)
5. COC1CC(OC2CCC3(C)C(CCC45CCC(C6=CC(=O)OC6)C(C)(CCC43)C5=O)C2)OC(C)C1O (stereo unspecified)

Out:
> 10 µM
> 100 µM
> 100 µM
> 100 µM
> 100 µM
